molecular target: human BRD4 bromodomain II (Homo sapiens); construct: human BRD4 bromodomain II [based on Genbank NM_058243, residues 349-460]; host or cells: E. coli; test: Bromodomain binding assay (AlphaScreen), BRD4 BDII; conditions: AlphaScreen assay, Table C2; read-out: BRD4 BDII IC50
IC50 for assorted compounds

IC50 measured on CC(=O)Nc1ccc(-c2cccc(-c3cc(C#N)cc(N4CCNCC4)c3)c2O)cc1F = 1 to 10 nM

Input CC(=O)Nc1ccc(-c2cccc(-c3ccccc3)c2O)cc1 . Output IC50: > 100 nM

* * *

target: human BRD4 bromodomain II (Homo sapiens); construct: human BRD4 bromodomain II [based on Genbank NM_058243, residues 349-460]; host or cells: E. coli; experiment: Bromodomain binding assay (AlphaScreen), BRD4 BDII; settings: AlphaScreen assay, Table C2; read-out: BRD4 BDII IC50
pIC50: −log10 of the molar value.
Entries and their pIC50

A selection of reference data follows.
compound=CN1CCN(c2ccc(-c3cc(F)cc(-c4cnc(CO)c(N5CCNCC5)c4)c3O)cc2Cl)C1=O result="8.00 to 9.00"
compound="CC(=O)Nc1ccc(-c2cccc(-c3ccc(C(F)(F)F)c(N4CCNCC4)c3)c2O)cc1F [Example 336, acetate]" result="7.00 to 8.00"
compound=Cc1cc(-c2ccc(-n3ccn(C)c3=O)c(Cl)c2)c(O)c(-c2cc(N3CCN[C@H](C)C3)c3nccnc3c2)c1 result="9.00 to 11.00"

The measured pIC50 associated with CC(=O)Nc1ccc(-c2cccc(-c3cc(N4CCNCC4)no3)c2O)cc1Cl [Example 32, 2,2,2-trifluoroacetate] reads 7.00 to 8.00

This collection of values is drawn from patent US20250179059A1.
